test: Primary qHTS to identify inhibitors of SARS-CoV-2 cell entry (AID 1645846); conditions: SARS-CoV-2 pseudovirus cell entry assay, luminescence; at 57.1 µM (top of the series) unless noted; note: nearly all actives have a fitted effect of over 45% in size
Inconclusive results are not listed.
quantity: activity change, negative = inhibition (%)

COc1ccc(C2(C#N)CCC(C(=O)O)CC2)cc1OC1CCCC1 (stereo not given): -18.7
CCNC(=O)CCC/C=C\C[C@@H]1[C@@H](/C=C/C(O)CCc2ccccc2)[C@@H](O)C[C@@H]1O (stereo not given in full): -23.1
O=c1[nH]nc(OCCCc2ccc(Cl)cc2)c(NCc2cccnc2)c1Br: -25.1
CC1CCN(c2cc(N3CCN(C)CC3)ccc2NC(=O)c2cc(C#N)c[nH]2)CC1: -17.8
CC(=O)[C@@]1(O)CC[C@H]2[C@@H]3CCC4=CC(=O)CC[C@]4(C)C3(F)[C@@H](O)C[C@@]21C (stereo not given in full): -3.62
COc1cc2c(cc1OC)C1CC(=O)C(CC(C)C)CN1CC2 (stereo not given): -3.6
CN[C@H]1CCc2cc(OC)c(OC)c(OC)c2-c2ccc(OC)c(=O)cc21: -76.7
Cc1cncc2cccc(S(=O)(=O)N3CCCN(C(=O)CN)C[C@@H]3C)c12: -30.7
NCc1c[nH]c(=S)n1[C@H]1CCc2c(F)cc(F)cc2C1: -19.7

----------
system: CASKI; assay: Primary qHTS to identify gynecologic anti-cancer compounds using libraries of approved drugs and bioactive compounds (AID 1345084); conditions: Gynecologic cancer cell panel viability, ATPlite luminescence, 48 h; series mostly up to 57.5 µM; note: nearly all actives have a fitted effect of over 55% in size
Records with an inconclusive call do not appear. The source made the active and inactive calls. Calls come from the whole dose curve; as a rule, active = well fitted cell-killing curve with a large enough effect; inconclusive = small, poorly fitted or top-dose-only effect, or effect the other way; inactive = flat fitted curve, though single readings scatter.
Outcomes: y for active, n for inactive

CC[C@H]1C2CC3[C@@H]4N(C)c5ccccc5[C@]45C[C@@H]([C@H]2[C@H]5O)N3[C@H]1O: n
C[C@H]1CCC[C@H](O)CCC/C=C/c2cc(O)cc(O)c2C(=O)O1: n
C/C=C1/CN2CC[C@]34C(=Nc5ccccc53)[C@@H]2C[C@@H]1[C@H]4C(=O)OC: n
FC(F)(F)c1ccc(N2CCNCC2)nc1Cl: n
C[C@H]1O[C@@H](n2cnc3c(N)ncnc32)C[C@@H]1O: n
C/C=C(\C)C(O)C(C)/C=C(C)/C=C/C/C(C)=C/Cc1nc(OC)c(OC)c(O[C@@H]2O[C@@H](C)[C@H](O)[C@@H](O)[C@H]2O)c1C (stereo partly drawn): y
C=CCN1CC[C@]23c4c5ccc(O)c4O[C@H]2[C@@H](O)CC[C@@]3(O)[C@H]1C5: n
COc1ccc(C(C)(C)C)cc1CN[C@H]1C2CCN(CC2)[C@H]1C(c1ccccc1)c1ccccc1: n
CC1CCCC(O)CC(=O)Cc2cc(O)cc(O)c2C(=O)O1 (stereo not drawn): n
CCCCOC(=O)c1ccnc2cc(C(OCCN3CCCCC3)c3ccccc3Cl)sc12 (stereo not drawn): n
C=CC(C)(C)C12C=C(O)C(=O)N3/C(=C\c4cnc[nH]4)C(=O)NC31N(OC)c1ccccc12 (stereo not drawn): n
CN1CCC2=C(C1)c1ccccc1Cc1ccccc12: n
O=C(C[C@@H]1NCCC[C@H]1O)Cn1cnc2ccccc2c1=O: y
C[C@H]1O[C@@H](O[C@H]2CC[C@]3(CO)C4CC[C@]5(C)[C@@H](C6=CC(=O)OC6)CC[C@]5(O)[C@@H]4CC[C@H]3C2)[C@H](O)[C@H](O)[C@@H]1O[C@@H]1O[C@H](CO)[C@@H](O)[C@H](O)[C@H]1O (stereo partly drawn): y
CCC1CN2CCC3(C(=O)Nc4cccc(O)c43)C2CC1/C(=C/OC)C(=O)OC (stereo not drawn): n
C1=C(c2cnc[nH]2)c2ccsc2CC1: n
COC(=O)[C@@]1(C)C(=O)C=C[C@]2(C)c3c(O)cc(C(C)C)cc3[C@H](O)[C@@H](OC(C)=O)C12 (stereo partly drawn): n
COC(=O)C1=COC(C)C2CN3CCC4(C(=O)Nc5ccccc54)C3CC12 (stereo not drawn): n

----------
target: Nucleoprotein (Lymphocytic choriomeningitis virus (strain Armstrong)) (UniProt P09992); assay: qHTS for Inhibitors of the Functional Ribonucleoprotein Complex (vRNP) of Lymphocytic Choriomeningitis Arenaviruses (LCMV): LCMV Primary Screen - GLuc reporter signal (AID 1347086); details: LCMV minigenome vRNP cell assay, Gaussia luciferase reporter; series mostly up to 57.5 µM; note: nearly all actives have a fitted effect of over 70% in size
Sequence (P09992 whole entry, looked up): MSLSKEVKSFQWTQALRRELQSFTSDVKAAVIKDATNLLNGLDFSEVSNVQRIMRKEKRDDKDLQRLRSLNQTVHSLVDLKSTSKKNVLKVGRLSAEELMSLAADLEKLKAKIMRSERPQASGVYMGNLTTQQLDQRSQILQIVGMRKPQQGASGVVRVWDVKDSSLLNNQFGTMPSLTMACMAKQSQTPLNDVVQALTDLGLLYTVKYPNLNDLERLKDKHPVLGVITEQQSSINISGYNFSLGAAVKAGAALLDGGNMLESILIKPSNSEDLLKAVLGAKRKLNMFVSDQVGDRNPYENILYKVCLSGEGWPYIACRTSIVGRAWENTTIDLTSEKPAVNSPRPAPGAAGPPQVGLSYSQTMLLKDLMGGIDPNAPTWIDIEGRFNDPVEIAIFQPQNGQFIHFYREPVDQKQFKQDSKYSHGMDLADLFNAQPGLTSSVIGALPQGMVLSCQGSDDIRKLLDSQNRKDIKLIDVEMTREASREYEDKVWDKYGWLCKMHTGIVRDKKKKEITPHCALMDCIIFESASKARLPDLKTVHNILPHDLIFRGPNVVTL
Inconclusive results are not listed. The source made the active and inactive calls. Calls come from the whole dose curve.
Outcomes: active, inactive

O=C1N[C@@H](Cc2cnc[nH]2)C(=O)N2CCC[C@@H]12: inactive
CNC(=O)c1ccc(Nc2cc(Nc3ccccc3S(=O)(=O)C(C)C)c3cc[nH]c3n2)nc1: active
O=C(/C=C/c1ccc(O)cc1)OC[C@H]1O[C@@H](Oc2c(-c3ccc(O)cc3)oc3cc(O)cc(O)c3c2=O)[C@H](O)[C@@H](O)[C@@H]1O: inactive
Oc1cc2c(cc1O)C(c1ccccc1)CNCC2 (stereo not given): inactive
C=C1C[C@@]23CC[C@H]4[C@@](C)(CCC[C@@]4(C)C(=O)O)[C@@H]2CC[C@]1(O)C3: inactive

----------
biological target: Nucleoprotein (Lymphocytic choriomeningitis virus (strain Armstrong)); assay: qHTS for Inhibitors of the Functional Ribonucleoprotein Complex (vRNP) of Lymphocytic Choriomeningitis Arenaviruses (LCMV): LCMV Primary Screen - GLuc reporter signal (AID 1347086); settings: LCMV minigenome vRNP cell assay, Gaussia luciferase reporter; series mostly up to 57.5 µM; note: nearly all actives have a fitted effect of over 70% in size
Records with an inconclusive call do not appear. Activity calls are given as the source filed them. Calls follow the shape of the full dose curve.
quantity: outcome

c1ccc(CN(Cc2ccccc2)Cc2ccccc2)cc1: inactive
CNC(=O)c1ccccc1Sc1ccc2c(C=Cc3ccccn3)n[nH]c2c1: inactive
Cc1ccnc(N)c1: inactive
O=C(O)/C=C/c1ccccc1: inactive
CCCC1O[C@@H]2C[C@H]3[C@@H]4CCC5=CC(=O)C=C[C@]5(C)[C@H]4[C@@H](O)C[C@]3(C)[C@]2(C(=O)CO)O1 (stereo not given in full): inactive
O=C(c1cc(O)c(O)c([N+](=O)[O-])c1)c1ccccc1F: inactive
C=CC1=C(C(=O)O)N2C(=O)[C@@H](NC(=O)C(=NO)c3csc(N)n3)[C@H]2SC1: inactive
NCCCNCCCCNC(=O)C(O)NC(=O)CCCCCCN=C(N)N (stereo not given): inactive
COc1ccc(CCOC2OC(CO)C(OC(=O)/C=C/c3ccc(O)c(OC)c3)C(O[C@H]3O[C@@H](C)[C@H](O)[C@@H](O)[C@H]3O)C2O)cc1O (stereo not given in full): inactive
COc1ccc2c(=O)c(-c3ccccc3)c(C)oc2c1: inactive

----------
test system: Zika virus NS2B-NS3 protease (unlinked); test: Optimization of GU AMC qHTS for Zika virus inhibitors: Unlinked NS2B-NS3 protease assay (AID 1347151); settings: recombinant ZIKV NS2B-NS3 protease, fluorogenic AMC substrate; series mostly up to 52.5 µM;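 note: 0% = no-inhibitor control and -100% = no-enzyme control; nearly all actives have a fitted effect of over 80% in size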
Records with an inconclusive call do not appear. The source made the active and inactive calls. Calls come from the whole dose curve; as a rule, active = well fitted inhibition curve with a large enough effect; inconclusive = small, poorly fitted or top-dose-only effect; inactive = no such curve, though single readings can be large or run the other way.
quantity: outcome

CN1CC[C@@]23CCCCC2C1Cc1ccc(O)cc13 (stereo not given in full): inactive
C[C@@H]1[C@@H]2Cc3ccc(O)cc3[C@@]1(C)CCN2CCc1ccccc1: inactive
CC1OC(O[C@H]2C[C@@H](O)[C@]3(CO)[C@H]4[C@H](O)C[C@]5(C)[C@@H](C6=CC(=O)OC6)CC[C@]5(O)[C@@H]4CC[C@]3(O)C2)C(O)C(O)C1O (stereo not given in full): inactive
C=CCN1CCC2(C)c3cc(O)ccc3CC1C2C (stereo not given): inactive
CN1CC[C@@]23CCCC[C@@H]2[C@@H]1Cc1ccc(O)cc13: inactive

----------
test system: TAB165; experiment: qHTS profiling for inhibitors of Plasmodium falciparum proliferation (AID 504749); note: nearly all actives have a fitted effect of over 60% in size; note: potency is the fitted concentration of half-maximal effect; conditions: P. falciparum in erythrocytes, SYBR Green DNA, 72 h; series mostly up to 28.7 µM
Inconclusive results are not listed. Calls of active or inactive are those of the source. Calls follow the shape of the dose curve; as a rule, active = well fitted inhibition curve with a large enough effect; inconclusive = small, poorly fitted or top-dose-only effect; inactive = flat fitted curve, though single readings scatter.
quantity: Potency

Cc1cccc([C@H](C)c2cnc[nH]2)c1C: 4.47 µM (active)
CC(C)[C@@]1(NC(=O)[C@H]2CC3c4cccc5[nH]cc(c45)C[C@H]3N(C)C2)O[C@@]2(O)C3CCCN3C(=O)[C@@H](Cc3ccccc3)N2C1=O (stereo not given in full): 0.562 µM (active)
CCCCCCCCCC[N+](C)(C)CCCCCCCCCC: 7.08 µM (active)
C[N+](C)(C)CC(=O)[O-]: inactive
CCN1C[C@]2(COC)[C@H](O)C[C@H](OC)[C@]34C1C([C@H](OC)[C@H]23)[C@]1(OC(C)=O)C2[C@@H](OC(=O)c3ccccc3)C(O)(C[C@H]24)[C@@H](OC)[C@@H]1O: inactive

----------
test system: Tov-21-G; assay: Primary qHTS to identify gynecologic anti-cancer compounds using libraries of approved drugs and bioactive compounds (AID 1345084); details: Gynecologic cancer cell panel viability, ATPlite luminescence, 48 h; series mostly up to 57.5 µM; note: nearly all actives have a fitted effect of over 55% in size
Inconclusive results are not listed. Active and inactive are the calls of the source. The call rests on the fitted dose curve; in most records, active means well fitted cell-killing curve with a large enough effect; inconclusive means small, poorly fitted or top-dose-only effect, or effect the other way; inactive means flat fitted curve, though single readings scatter.
Outcomes: YES = active, NO = inactive

NCCCCCNC1(c2ccccc2)CCCCC1: NO
CN1CCc2cc3c(cc2C1C1OC(=O)c2c1ccc1c2OCO1)OCO3 (stereo not given): NO
c1cncc(OC[C@@H]2CCN2)c1: NO
CCCCCn1cc(C(=O)c2cccc3ccccc23)c2ccccc21: NO
C#CC1(O)CCC2C3CCC4=CC(=O)CCC4=C3C=CC21C (stereo not given): NO
CCc1nn(C)c(C(=O)NCc2ccc(Oc3ccc(C)cc3)cc2)c1Cl: NO
CCC(C)C1NC(=O)C(C(C)=O)=C1O (stereo not given): NO
CC1=CC(=O)[C@@H](O)[C@@]2(C)C1C[C@H]1OC(=O)[C@H](O)[C@@]3(O)[C@@H](C)[C@@H](O)[C@H](O)C2[C@@]13C (stereo not given in full): YES
C#CCO[C@H]1CN2CCC1CC2: NO
CCC(C)/C=C(C)/C=C/C1=CC2=C(Cl)C(=O)C(C)(OC(C)=O)C(=O)C2=CO1 (stereo not given): NO
C[C@@H]1CCC/C=C/[C@H]2C[C@@H](O)C[C@@H]2[C@@H](O)/C=C/C(=O)O1: YES
C1=C(c2cnc[nH]2)c2ccsc2CC1: NO
C/C=C(/C)C(=O)O[C@H]1[C@@H]2[C@H](C)C(=O)O[C@@H]2C[C@@H](C)[C@@H]2C=CC(=O)[C@]21C: NO
COC1CC(O[C@H]2CC[C@@]3(C)C(CCC4C3CC[C@]3(C)C(C5=CC(=O)OC5)CCC43O)C2)OC(C)C1OC1OC(COC2OC(CO)C(O)C(O)C2O)C(O)C(O)C1O (stereo not given in full): YES
CCCCn1cc(C(=O)c2cccc3ccccc23)c2ccccc21: NO
CC(=O)O[C@H]1C(=O)[C@]2(C)C(O)C[C@H]3OC[C@@]3(OC(C)=O)[C@H]2[C@H](OC(=O)c2ccccc2)[C@]2(O)C[C@H](O)C(C)=C1C2(C)C (stereo not given in full): NO
COC(=O)CC1CC2(C(=O)c3c(O)cccc3C2(O)C(=O)OC)C(C)O1 (stereo not given): NO
O=C(N1CCCCC1Cc1ccccc1)n1cc(-c2ccc(-c3ccccc3)cc2)nn1 (stereo not given): NO
CCOC(=O)Nc1ccc(NCc2c(C)cc(C)cc2C)cc1N: NO
O=C1CN=C(c2ccccc2Cl)c2cc(Br)ccc2N1: NO

// data source = PubChem BioAssay (NCATS)
